assay-protocol: chemical genetic growth profiling, strain panel (AID 1159580);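 further: tested at 20 µM; growth read once vehicle control cultures reached saturation at 30 °C; 1 = growth at the plate median or of vehicle wells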
setup-conditions: S. cerevisiae deletion strains, growth OD, locus YNL153C, strain GIM3
The whole screen tested about 5,500 compounds, of which about 2,000 (36%) were called active. Not shown: some 18% with an inconclusive outcome. No stated cut-off is given here; in the data, active means normalized growth mostly below about 0.91 (no sharp cut-off); inconclusive means no clear call, values can overlap the other calls; inactive means mostly above about 0.92. Some of the results follow.
Possible outcomes: 1 (active), -1 (inactive)

- molecule: "O=C(O)CCCCCCCCCCCCC1C=CCC1 (stereo unspecified)"
  label-value: 1
- molecule: "CC(C)(O)C#Cc1ccc(/C=N\\O)cc1"
  label-value: -1
- molecule: "O=C(O)c1cc(=O)c(O)c2c(O)c(O)ccc2c1"
  label-value: -1
- molecule: "C[C@@H]1CC2C3CCC4=CC(=O)C=C[C@]4(C)[C@@]3(F)[C@@H](O)C[C@]2(C)[C@@]1(O)C(=O)COP(=O)(O)O (stereo partly specified)"
  label-value: -1
- molecule: "O=C1OCCN1/N=C\\c1ccc([N+](=O)[O-])o1"
  label-value: 1
- molecule: "CC[C@@H](C(=O)O)[C@@H]1O[C@@H]([C@@H](C)[C@H](O)[C@H](C)C(=O)[C@H](CC)[C@H]2O[C@]3(C=C[C@@H](O)[C@]4(CC[C@@](C)(C5CC[C@](O)(CC)[C@H](C)O5)O4)O3)[C@H](C)C[C@@H]2C)[C@@H](C)C[C@H]1C (stereo partly specified)"
  label-value: 1

----------
molecules and their reported normalized growth
assay-protocol: chemical genetic growth profiling, strain panel (AID 1159580);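 further: tested at 20 µM; growth read once vehicle control cultures reached saturation at 30 °C; 1 = growth at the plate median or of vehicle wells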
setup-conditions: S. cerevisiae deletion strains, growth OD, locus YDR363W, strain ESC2, stronger effect = lower value
About 2,000 (36%) of roughly 5,500 compounds were called active. Not shown: some 18% with an inconclusive outcome. This is one part of the list.

- molecule: "C[C@@](Cc1ccc(O)c(O)c1)(NN)C(=O)O"
  normalized growth: 1.02
- molecule: "O=C(O)CP(=O)(O)O"
  normalized growth: 1.01
- molecule: "CCCNC(C)C(=O)Nc1ccccc1C (stereo not given)"
  normalized growth: 1.05
- molecule: "CCCn1c(=O)c2[nH]c(-c3ccc(OCC(=O)NCCN)cc3)nc2n(CCC)c1=O"
  normalized growth: 0.983
- molecule: "CN1CCc2cc(O)cc3c2[C@H]1Cc1ccc(O)c(O)c1-3"
  normalized growth: 0.927
- molecule: "COc1ccccc1NC(=O)Nc1nc(-c2cccnc2)nc2ccccc12"
  normalized growth: 1.02
- molecule: "CN(C)CCCO[C@@H]1[C@H]2OC(C)(C)O[C@H]2O[C@@H]1C(O)CO (stereo not given in full)"
  normalized growth: 1
- molecule: "Cc1ccc(O)c(N=Nc2ccccc2)n1"
  normalized growth: 0.896
- molecule: "COc1cccc(-c2cc(=O)c3ccccc3o2)c1N"
  normalized growth: 1.04
- molecule: "CC(N)=NCCCC[C@@H](N)C(=O)O"
  normalized growth: 1.01
- molecule: "N.N.N.N.N.N.N.N.N.N.N.N.N.N.O.O.[Ru+4].[Ru+5].[Ru+5]"
  normalized growth: 0.323
- molecule: "N=C(N)SCCc1cccc(CCSC(=N)N)c1"
  normalized growth: 0.997
- molecule: "CCCN1CCOC2c3cc(O)ccc3OCC21 (stereo not given)"
  normalized growth: 0.96
- molecule: "[Li+]"
  normalized growth: 1.01
- molecule: "C=CCN1CCc2cccc3c2[C@H]1Cc1ccc(O)c(O)c1-3"
  normalized growth: 0.516
- molecule: "COCCCCC(=NOCCN)c1ccc(C(F)(F)F)cc1"
  normalized growth: 0.975
- molecule: "CCn1cc(C(=O)O)c(=O)c2ccc(C)nc21"
  normalized growth: 0.965
- molecule: "COCC(=O)O[C@]1(CCN(C)CCCc2nc3ccccc3[nH]2)CCc2cc(F)ccc2[C@@H]1C(C)C"
  normalized growth: 1
- molecule: "C=CCN1CC[C@]23c4c5ccc(O)c4O[C@@H]2/C(=N\\N=C2\\CC[C@@]4(O)C6Cc7ccc(O)c8c7[C@@]4(CCN6CC=C)[C@@H]2O8)CC[C@@]3(O)C1C5"
  normalized growth: 1.01
- molecule: "CCN(CC)CCCCCCCCOC(=O)c1cc(OC)c(OC)c(OC)c1"
  normalized growth: 1.01
- molecule: "c1ccc2c(c1)OCC(C1=NCCN1)O2 (stereo not given)"
  normalized growth: 1.03
- molecule: "CCCN(CCC)CCc1cccc2c1CC(=O)N2"
  normalized growth: 1.03
- molecule: "OC1CCCCC1N1CCC(c2ccccc2)CC1 (stereo not given)"
  normalized growth: 1.01
- molecule: "N#Cc1c(-c2ccccc2)no[n+]1[O-]"
  normalized growth: 1
- molecule: "CCC(CO)NC(=O)C1C=C2c3cccc4c3c(cn4C)CC2N(C)C1 (stereo not given)"
  normalized growth: 0.972

----------
molecules and their reported normalized growth
assay-protocol: chemical genetic growth profiling, strain panel (AID 1159580);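 further: tested at 20 µM; growth read once vehicle control cultures reached saturation at 30 °C; 1 = growth at the plate median or of vehicle wells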
setup-conditions: S. cerevisiae deletion strains, growth OD, locus YFR019W, strain FAB1, stronger effect = lower value
The campaign covered roughly 5,500 compounds. About 2,000 (36%) were called active. About 18% were inconclusive and are not listed. The list shows a part of the results.
parameter-measured: normalized growth

- molecule: "COc1cc(Cl)c(NS(=O)(=O)c2cc(Br)c(Br)s2)c(OC)c1"
  experimental-value: 0.964
- molecule: "CSc1cccc(N2C(=O)CC(c3c(Cl)cccc3Cl)CC2=O)c1"
  experimental-value: 0.971
- molecule: "COc1cc(N=Cc2cc(Cl)cc(Cl)c2OS(=O)(=O)c2ccc(C)cc2)c(OC)cc1Cl"
  experimental-value: 0.955
- molecule: "Cc1cc(C(=O)O/N=C(/N)c2ccc([N+](=O)[O-])o2)no1"
  experimental-value: 0.877
- molecule: "CCc1cc2c(cc1-c1csc(C/C(N)=N\\O)n1)C(C)(C)CCC2(C)C"
  experimental-value: 0.819
- molecule: "Cc1onc(-c2ccccc2Cl)c1-c1nc2ccccc2c(=O)o1"
  experimental-value: 0.979
- molecule: "CN(C)/C=C/C(=O)c1ccc(C#Cc2ccccc2)cc1"
  experimental-value: 0.981
- molecule: "CCC1CCC(C)N(C(=S)Nc2ccc(Br)cc2C)C1 (configuration not stated)"
  experimental-value: 0.995
- molecule: "COc1cc(C(=O)Oc2c(Cl)cc(Cl)cc2C=Nc2ccc([N+](=O)[O-])cc2C#N)cc(OC)c1OC"
  experimental-value: 0.593
- molecule: "CC(C)(O)C#Cc1ccc(/C=N\\Nc2ccccc2)cc1"
  experimental-value: 0.589
- molecule: "O=C(NCc1ccco1)c1csc(C2COc3ccccc3O2)n1 (configuration not stated)"
  experimental-value: 0.711
- molecule: "COc1ccccc1NC(=O)Nc1nn(C)c2cccc(OC)c12"
  experimental-value: 0.907
- molecule: "N#CC1=C(N)C(C#N)(C#N)C2(CCCCC2)C2CCCC=C12 (configuration not stated)"
  experimental-value: 0.985
- molecule: "CCOC(=O)CCc1cc(N=Cc2cc(Br)ccc2O)c(O)c(N=Cc2cc(Br)ccc2O)c1"
  experimental-value: 0.877
- molecule: "N=C(N)SCc1nc(-c2ccc(Cl)cc2)no1"
  experimental-value: 0.973
- molecule: "O=C(Nc1ccccn1)c1cc(-c2ccccc2)c(C(F)(F)F)s1"
  experimental-value: 0.953
- molecule: "O=C(CO/N=C\\c1ccc(Cl)cc1Cl)NNC(=S)Nc1cc(Cl)ccc1Cl"
  experimental-value: 1
- molecule: "O=C(Nc1cccc(C(F)(F)F)c1)Oc1ccc(F)cc1Cl"
  experimental-value: 0.987
- molecule: "Cc1nc(C(F)(F)F)c(C(=O)O/N=C(/N)c2ccc(Cl)cc2)s1"
  experimental-value: 0.938
- molecule: "COCCOc1ccccc1NC(=S)SCCSC(=S)Nc1ccccc1OCCOC"
  experimental-value: 0.945
- molecule: "COc1cc(C(=O)Oc2c(Cl)cc(Cl)cc2C=Nc2cccc(C(F)(F)F)c2)cc(OC)c1OC"
  experimental-value: 0.702
- molecule: "N/C(=N/OC(=O)c1ccc(Cl)cc1)c1ccc(F)cc1F"
  experimental-value: 0.541

----------
assay-protocol: chemical genetic growth profiling, strain panel (AID 1159580);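 further: tested at 20 µM; growth read once vehicle control cultures reached saturation at 30 °C; 1 = growth at the plate median or of vehicle wells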
setup-conditions: S. cerevisiae deletion strains, growth OD, locus YNL298W, strain CLA4, stronger effect = lower value
Among all 5,500 compounds or so, about 2,000 (36%) were called active. Inconclusive results (about 18%) are left out. Some of the results follow.

- molecule: "COc1ccccc1-c1cc(=O)c2cccc(OC)c2o1"
  normalized growth: 0.963
- molecule: "CC[C@@H]1[C@@H](O)N2C3C[C@H]1C1C(O)[C@]4(C[C@@H]12)c1ccccc1N(C)[C@@H]34 (stereo not given in full)"
  normalized growth: 0.968
- molecule: "O=C(O)c1cc(=O)c2c(OCC(O)COc3cccc4oc(C(=O)O)cc(=O)c34)cccc2o1"
  normalized growth: 1.01
- molecule: "CC(C)C1=CC2=CCC3[C@](C)(CCC[C@]3(C)C(=O)O)C2CC1 (stereo not given in full)"
  normalized growth: 0.995
- molecule: "NC(=O)c1cc[n+](CC2=C(C(=O)O)N3C(=O)C(NC(=O)C(c4ccccc4)S(=O)(=O)[O-])C3SC2)cc1 (stereo not given)"
  normalized growth: 0.988
